Measured values drawn from patent US5808144A for this set.

# Tested on: human IgG antibody
# TEST: Human IgG antibody production-inhibiting activity in vitro (lymphocytes + IL-4 + anti-CD40 Ab + IL-10, sandwich ELISA)
# Format: cell-based
# REPORTED_CONDITIONS: Lymphocyte, IgG antibody production
# Procedure: Measurement of human IgE antibody production-inhibiting activity in vitro In accordance with the following method established with reference to The Journal of Immunology (J. Immunol.), Vol. 146, 1836 to 1842 (1991) and the Journal of Immunology (J. Immunol.), Vol. 147, 8 to 13 (1991), the concentrations of IgE and […], when the compounds of the present invention shown in Table 12 were employed, were measured. […]
Would you kindly list IC50 for each of these compounds?
Give bare numbers, in nM.

1. O=C(Cc1ccc(Oc2ccc(OCc3ccccc3)cc2)cc1)Nc1ccccc1C(=O)O | 200
2. O=C(Cc1ccc(Oc2ccc(OC3CCCCCCC3)cc2)cc1)Nc1ccccc1C(=O)O | 12
3. O=C(Cc1ccc(Oc2ccc(OC3CCCCCCCCCCC3)cc2)cc1)Nc1ccccc1C(=O)O | 46

Return IC50 measured with human IgG antibody given this compound: O=C(Cc1ccc(Oc2ccc(OC3CCCCC3)cc2)cc1)Nc1ccccc1C(=O)O
50

###

# Test system: human IgG antibody
# TEST: Human IgG antibody production-inhibiting activity in vitro (lymphocytes + IL-4 + anti-CD40 Ab + IL-10, sandwich ELISA)
# Type: cell-based
# REPORTED_CONDITIONS: Lymphocyte, 100 nM (0.1 μM), vs. no compound
For each entry below, report its inhibition at 0.1 µM value.
I'd appreciate it if you wrote the number followed by its unit.

1) O=C(Nc1ccccc1C(=O)O)c1ccc(Oc2ccc(OC3CCCCCCC3)cc2)cc1 [compound 22] | -33.2%
2) O=C(Cc1ccc(Oc2ccc(OC3CCCC3)cc2)cc1)Nc1ccccc1C(=O)O [compound 12] | 95.8%
3) CCC(CC)Oc1ccc(Oc2ccc(CC(=O)Nc3ccccc3C(=O)O)cc2)cc1 [compound 20] | 52.6%
4) O=C(Nc1ccccc1C(=O)O)c1ccc(Oc2ccc(O)cc2)cc1 [compound 30] | -31.7%
5) O=C(Cc1ccc(Oc2ccc(OC3CCCCC3)cc2)cc1)Nc1ccccc1C(=O)O [Compound No. 8] | 40.6%

# map each molecule to its inhibition at 0.1 µM
1. CC(C)Oc1ccc(Oc2ccc(CC(=O)Nc3ccccc3C(=O)O)cc2)cc1 [compound 18]
2. O=C(Cc1ccc(Oc2ccc(OC3CCCCCCC3)cc2)cc1)Nc1ccccc1C(=O)O [Compound No. 14]
3. O=C(Cc1ccc(Oc2ccc(OCc3ccccc3)cc2)cc1)Nc1ccccc1C(=O)O [Compound No. 4]
4. O=C(Cc1ccc(Oc2ccc(OC3CCCCCCCCCCC3)cc2)cc1)Nc1ccccc1C(=O)O [compound 16]

1. -1.7%
2. 93.8%
3. 100%
4. 95.8%

###

# Tested on: human IgE antibody
# TEST: Human IgE antibody production-inhibiting activity in vitro (lymphocytes + IL-4 + anti-CD40 Ab + IL-10, sandwich ELISA)
# Type: cell-based
# REPORTED_CONDITIONS: Lymphocyte, IgE antibody production
// classify: if (IC50 < 20 nM) met else not met

1. O=C(Cc1ccc(Oc2ccc(OC3CCCC3)cc2)cc1)Nc1ccccc1C(=O)O | not met
2. O=C(Cc1ccc(Oc2ccc(OC3CCCCCCC3)cc2)cc1)Nc1ccccc1C(=O)O | met
3. O=C(Cc1ccc(Oc2ccc(OC3CCCCC3)cc2)cc1)Nc1ccccc1C(=O)O | met
4. CCC(CC)Oc1ccc(Oc2ccc(CC(=O)Nc3ccccc3C(=O)O)cc2)cc1 | not met
5. O=C(Cc1ccc(Oc2ccc(OC3CCCCCCCCCCC3)cc2)cc1)Nc1ccccc1C(=O)O | not met

Criterion: IC50 strictly below 20 nM. Is it met by O=C(Cc1ccc(Oc2ccc(OCc3ccccc3)cc2)cc1)Nc1ccccc1C(=O)O ?
not met
